Source: the Human Domainome abundance scans (Beltran et al. 2025)

B1: Tudor domain-containing protein 3, residues 554 to 611; numbered along this chain, Q9H7E2 (parent)
chain: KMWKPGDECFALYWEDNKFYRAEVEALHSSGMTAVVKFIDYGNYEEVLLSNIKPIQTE

- Variants of: B1
- Assay Explanation: abundance fitness (aPCA) (normalised: wild type 0, dead -1); higher = more abundant; growth selection in yeast, the domain comes from the species named
- Condition Details: Homo sapiens
Answer not met if abundance fitness is under -0.2, and met if it is -0.2 or more.

These recorded examples may help you get a feel for the data.
- Mutation Spec: "Y20H"
  Label Value: "met"
- Mutation Spec: "F19M"
  Label Value: "not met"
- Mutation Spec: "Y41S"
  Label Value: "met"
- Mutation Spec: "V47A"
  Label Value: "not met"
- Mutation Spec: "E58W"
  Label Value: "met"
- Mutation Spec: "F38T"
  Label Value: "not met"
- Mutation Spec: "L48Y"
  Label Value: "not met"
- Mutation Spec: "Q56P"
  Label Value: "met"
- Mutation Spec: "I55E"
  Label Value: "not met"
- Mutation Spec: "D7W"
  Label Value: "not met"

Request: Determine whether measured abundance fitness meets or exceeds -0.2 for `G6N`
Result: not met

Request: Could you please find out whether `K53T` has abundance fitness that meets -0.2 or exceeds it?
Result: met
